- study system: Hemoglobin HbA (Homo sapiens) (UniProt P69905+P68871)
- Sequence (P68871 2-147 partner limits assumed): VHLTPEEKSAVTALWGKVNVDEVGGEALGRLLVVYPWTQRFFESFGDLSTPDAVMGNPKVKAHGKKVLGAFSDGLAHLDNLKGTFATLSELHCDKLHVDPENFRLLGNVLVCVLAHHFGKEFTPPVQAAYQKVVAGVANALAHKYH
- Sequence (P69905 2-142 limits assumed): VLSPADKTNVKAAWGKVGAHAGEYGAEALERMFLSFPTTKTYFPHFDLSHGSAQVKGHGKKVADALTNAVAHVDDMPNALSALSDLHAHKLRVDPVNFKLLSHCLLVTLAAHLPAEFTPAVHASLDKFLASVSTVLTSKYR
- measurement description: The Hill coefficient at 50% saturation (n50) between 40 and 60% oxygen saturation (n50 control value with no effector present, 2.7).
- Type: protein-complex assay
quantity measured: Hill coefficient (n50)

Cc1cc(C)cc(NC(=O)Cc2ccc(OC3(C(=O)N[C@H](Cc4ccc(O)cc4)C(=O)O)CCCC3)cc2)c1	2.3
Cc1cc(C)cc(NC(=O)Cc2ccc(OC3(C(=O)N[C@@H](CCCCN)C(=O)O)CCCC3)cc2)c1	2.3
Cc1cc(C)cc(NC(=O)Cc2ccc(OC(C)(C)C(=O)O)cc2)c1	2.3
Cc1cc(C)cc(NC(=O)Cc2ccc(OC3(C(=O)N[C@@H](CCCCNC(=O)OCc4ccccc4)C(=O)O)CCCC3)cc2)c1	2.4
Cc1cc(C)cc(NC(=O)Cc2ccc(OC3(C(=O)N[C@@H](Cc4ccccc4)C(=O)O)CCCC3)cc2)c1	2.7
Cc1cc(C)cc(NC(=O)Cc2ccc(OC3(C(=O)O)CCCC3)cc2)c1	2.4
Cc1cc(C)cc(NC(=O)Cc2ccc(OC3(C(=O)N4CCC[C@H]4C(=O)O)CCCC3)cc2)c1	2.7
Cc1cc(C)cc(NC(=O)Cc2ccc(OC3(C(=O)N[C@H](CC(C)C)C(=O)O)CCCC3)cc2)c1	2.6

---

- study system: Hemoglobin HbA (Homo sapiens) (UniProt P69905+P68871)
- measurement description: Ability to right-shift the oxygen equilibrium curves (OECs) quantified by ability to increase in P50 at which Hb was 50% saturated with oxygen in the presence of the effector at the concentration of 5 mM.
- Assay type: functional
quantity measured: P50e (mmHg)

Cc1cc(C)cc(NC(=O)Cc2ccc(OC3(C(=O)N[C@H](Cc4ccc(O)cc4)C(=O)O)CCCC3)cc2)c1	49
CC[C@@H](C)[C@@H](NC(=O)C1(Oc2ccc(CC(=O)Nc3cc(C)cc(C)c3)cc2)CCCC1)C(=O)O	40.6
Cc1cc(C)cc(NC(=O)Cc2ccc(OC3(C(=O)N[C@H](CSCc4ccccc4)C(=O)O)CCCC3)cc2)c1	33.3
Cc1cc(C)cc(NC(=O)Cc2ccc(OC3(C(=O)N[C@H](CC(C)C)C(=O)O)CCCC3)cc2)c1	42.6
Cc1cc(C)cc(NC(=O)Cc2ccc(OC3(C(=O)N[C@H](CO)C(=O)O)CCCC3)cc2)c1	34
Cc1cc(C)cc(NC(=O)Cc2ccc(OC3(C(=O)N[C@H](CCCCNC(=O)OCc4ccccc4)C(=O)O)CCCC3)cc2)c1	28.2
Cc1cc(C)cc(NC(=O)Cc2ccc(OC3(C(=O)N[C@H](CC(=O)O)C(=O)O)CCCC3)cc2)c1	55.3
Cc1cc(C)cc(NC(=O)Cc2ccc(OC3(C(=O)N[C@H](CCCCN)C(=O)O)CCCC3)cc2)c1	28.6

a = Cc1cc(C)cc(NC(=O)Cc2ccc(OC3(C(=O)N[C@@H](C)C(=O)O)CCCC3)cc2)c1
b = Cc1cc(C)cc(NC(=O)Cc2ccc(OC3(C(=O)N[C@@H](CC(C)C)C(=O)O)CCCC3)cc2)c1
c = Cc1cc(C)cc(NC(=O)Cc2ccc(OC3(C(=O)N[C@@H](CCCCN)C(=O)O)CCCC3)cc2)c1
Task item: I would appreciate it if you could sort these 3 compounds by P50e, starting from the smallest number. Write the labels in rank order as requested.
Reply: c, a, b

P = Cc1cc(C)cc(NC(=O)Cc2ccc(OC3(C(=O)N[C@H](CCC(=O)O)C(=O)O)CCCC3)cc2)c1
Q = Cc1cc(C)cc(NC(=O)Cc2ccc(OC(C)(C)C(=O)O)cc2)c1
Task item: Field: entry with larger P50e (options P / Q ). Your choice should be expressed through its label.
Reply: Q
